- TESTED SYSTEM: G-protein coupled receptor 84 (Homo sapiens)
- Sequence (Q9NQS5 whole entry): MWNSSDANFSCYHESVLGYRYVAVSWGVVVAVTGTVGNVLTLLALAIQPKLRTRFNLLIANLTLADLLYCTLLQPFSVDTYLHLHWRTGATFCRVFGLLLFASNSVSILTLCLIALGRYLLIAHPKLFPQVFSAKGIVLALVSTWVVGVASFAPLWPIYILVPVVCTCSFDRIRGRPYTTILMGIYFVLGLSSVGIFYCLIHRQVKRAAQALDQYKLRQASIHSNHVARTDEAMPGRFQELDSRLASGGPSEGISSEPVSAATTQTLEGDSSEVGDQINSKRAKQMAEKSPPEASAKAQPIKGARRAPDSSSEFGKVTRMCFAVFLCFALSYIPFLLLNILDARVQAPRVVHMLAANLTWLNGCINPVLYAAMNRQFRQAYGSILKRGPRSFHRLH
- EXPERIMENTAL PROTOCOL: Antagonist activity at human GPR84 expressed in HEK293 cells co-expressing Galpha16 assessed as reduction in 6-OAU induced intracellular calcium response preincubated for 10 mins followed by agonist addition and measured after 1 min by calcium mobilization assay
OBSERVATION TYPE: IC50

(Q) Look up IC50: "COP(=O)(OC1=Cc2ccccc2Sc2ccccc21)OC1=Cc2ccccc2Sc2ccccc21"
(A) > 100 µM

(Q) Try this compound next: "O=P(O)(Oc1ccccc1)Oc1ccccc1"
(A) > 100 µM

(Q) One more compound: "O=P(O)(O)OC1=Cc2ccccc2Sc2ccccc21"
(A) > 100 µM
